Target: T1, Rat Serum Albumin (rat, UniProt P02770 25-608)
T1 construct: mature; purified protein on CM5 chips for BIAcore; also called RSA; rat SA
T1 sequence (P02770 25-608): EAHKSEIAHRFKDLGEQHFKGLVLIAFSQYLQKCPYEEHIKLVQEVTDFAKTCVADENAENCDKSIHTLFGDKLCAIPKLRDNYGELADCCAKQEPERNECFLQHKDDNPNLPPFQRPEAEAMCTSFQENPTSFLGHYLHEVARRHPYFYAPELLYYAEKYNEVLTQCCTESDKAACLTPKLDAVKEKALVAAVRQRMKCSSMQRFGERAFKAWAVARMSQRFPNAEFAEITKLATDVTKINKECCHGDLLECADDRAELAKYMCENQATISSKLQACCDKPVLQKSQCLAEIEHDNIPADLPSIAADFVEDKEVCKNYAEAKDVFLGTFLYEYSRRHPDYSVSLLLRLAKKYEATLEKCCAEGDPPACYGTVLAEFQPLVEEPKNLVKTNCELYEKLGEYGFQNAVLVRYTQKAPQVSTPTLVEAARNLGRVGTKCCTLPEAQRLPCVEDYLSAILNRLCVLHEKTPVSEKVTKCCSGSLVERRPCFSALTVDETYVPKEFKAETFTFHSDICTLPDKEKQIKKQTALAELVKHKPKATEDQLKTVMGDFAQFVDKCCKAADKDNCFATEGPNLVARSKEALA
Assay: BIAcore SPR
QUANTITY_NAME: Kd (nM)
Field format: number, assumed nM, no unit text.

Inquiry: # lookup: Kd of DOM7h-11-79 (other, Vk dAb) VL: DIQMTQSPSSLSASVGDRVTITCRASRPIGTMLSWYQQKPGKAPKLLILAFSRLQSGVPSRFSGSGSGTDFTLTISSLQPEDFATYYCAQTGTHPTTFGQGTKVEIKW
Reply text: 11.1

Inquiry: Query (binder): DOM7h-11-69 (other, Vk dAb) VL: DIQMTQSPSSLSASVGDRVTITCRASRPIGTMLSWYQQKPGKAPKLLILAFSRLQSGVPSRFSGSGSGTDFTLTISSLQPEDFATYYCAQAGVHPTTFGQGTKVEIKR ; field requested: Kd
Reply text: 27.1

Inquiry: Fill in the blank: the reported Kd of DOM7h-11-56 (other, Vk dAb) VL: DIQMTQSPSSLSASVGDRVTISCRASRPIGTMLSWYQQKPGKAPKLLILAFSRLQSGVPSRFSGSGSGTDFTLTISSLQPEDFATYYCAQAGTHPTTFGQGTKVEIKW is ____.
Reply text: 23.4

Inquiry: Sample DOM7h-11-80 (other, Vk dAb) VL: DIQMTQSPSSLSASVGDRVTIFCRASRPIGTMLSWYQQKPGKAPKLLILAFSRLQSGVPSRFSGSGSGTDFTLTISSLQPEDFATYYCAQAGTHPTTFGQGTKVEIKW — what was its Kd?
Reply text: 24.1
